Test system: NCI-H522 lung
Protocol details: NCI tumour cell line growth inhibition, 48 h

[
  {
    "Compound": "CC(=O)O[C@H](C[C@H](C(C)C)N(C)C(=O)[C@@H](NC(=O)[C@H]1CCCCN1C)C(C)C)c1nc(C(=O)N[C@@H](Cc2ccccc2)C[C@H](C)C(=O)O)c(C)s1",
    "TGI": "> 25 µM"
  },
  {
    "Compound": "CCCC(OCC)(OCC)OCC",
    "TGI": "> 100 µM"
  },
  {
    "Compound": "CCOC(=O)[C@H](CSSc1ncnc2cc[nH]c12)NC(=O)[C@@H](C)c1ccc2cc(OC)ccc2c1",
    "TGI": "> 31.5 µM"
  },
  {
    "Compound": "CN(C(=O)OC(C)(C)C)[C@H]1CCCC[C@H]1N1CCCC1",
    "TGI": "> 100 µM"
  },
  {
    "Compound": "COC(=O)[C@H](CCSC)NC(=O)c1ccc(CNC(=O)/C=C/c2cccc(Oc3ccccc3)c2)cc1",
    "TGI": "> 100 µM"
  },
  {
    "Compound": "C[C@]12CCC[C@H](OC=O)C1(O)C[C@H](C(=O)O)CC2 (stereo partly drawn)",
    "TGI": "> 100 µM"
  },
  {
    "Compound": "N#CN=Nc1cc(Cl)c(N=NC#N)cc1Cl",
    "TGI": "> 100 µM"
  },
  {
    "Compound": "Cc1cc(Cl)nc(NC(=O)CSc2ccc(Cl)cc2)n1",
    "TGI": "> 100 µM"
  }
]

====

Quick list: TGI per entry.
Tested on: OVCAR-5 ovarian
Protocol details: NCI tumour cell line growth inhibition, 48 h
Quantity name: TGI (µM)

[
  {
    "Molecule": "CC1=CC(C)C(C)N(CCNC(=O)Nc2ccccc2)c2ccccc21 (stereo unspecified)",
    "Quantity name": "TGI",
    "Measurement units": "µM",
    "Relation symbol": "=",
    "Test result": 92.6
  },
  {
    "Molecule": "O=C(CCl)N1CCCCC1C1(c2cc3ccccc3[nH]2)OCCO1 (stereo unspecified)",
    "Quantity name": "TGI",
    "Measurement units": "µM",
    "Relation symbol": "=",
    "Test result": 17.2
  },
  {
    "Molecule": "CC(=O)C1(c2ccccc2)CCN(Cn2sc3nc(C)cc(C)c3c2=O)CC1",
    "Quantity name": "TGI",
    "Measurement units": "µM",
    "Relation symbol": "=",
    "Test result": 39
  },
  {
    "Molecule": "O=S(=O)(O)c1cc(S(=O)(=O)O)c2c(N=Nc3cccc4ccccc34)c(O)ccc2c1",
    "Quantity name": "TGI",
    "Measurement units": "µM",
    "Relation symbol": ">",
    "Test result": 100
  },
  {
    "Molecule": "CC1(C)CC23C(=O)N(c4ccccc4)C(=Nc4ccccc4)NC2=CC(C#N)=C(C#N)C3O1 (stereo unspecified)",
    "Quantity name": "TGI",
    "Measurement units": "µM",
    "Relation symbol": ">",
    "Test result": 100
  },
  {
    "Molecule": "Cn1c(=O)n(-c2c3ccccc3c(Cl)c3ccccc23)n(C(C)(C)C)c1=O",
    "Quantity name": "TGI",
    "Measurement units": "µM",
    "Relation symbol": ">",
    "Test result": 100
  }
]

====

Tested on: COLO 205 colon
Protocol details: NCI tumour cell line growth inhibition, 48 h
Quantity name: TGI (µM)

[
  {
    "Compound": "CC1(C)CC23C(=O)N(c4ccccc4)C(=Nc4ccccc4)NC2=CC(C#N)=C(C#N)C3O1 (configuration not stated)",
    "Quantity name": "TGI",
    "Relation symbol": ">",
    "Test result": 100
  },
  {
    "Compound": "CC1=CC(C)C(C)N(CCNC(=O)Nc2ccccc2)c2ccccc21 (configuration not stated)",
    "Quantity name": "TGI",
    "Relation symbol": "=",
    "Test result": 32.6
  },
  {
    "Compound": "C/C(CC(=O)CCCC(=O)Nc1ccc(Cl)cc1Cl)=N/NC(=O)CC#N",
    "Quantity name": "TGI",
    "Relation symbol": ">",
    "Test result": 100
  },
  {
    "Compound": "CN(C)CCOc1cc2c(c3ccccc13)-c1ccccc1C2=O",
    "Quantity name": "TGI",
    "Relation symbol": "=",
    "Test result": 3.68
  },
  {
    "Compound": "CC1(C)SC2C(C(=O)O)N=C(Cc3ccccc3)N2C1C(=O)O (configuration not stated)",
    "Quantity name": "TGI",
    "Relation symbol": ">",
    "Test result": 100
  },
  {
    "Compound": "N=c1nc(N)c2cc3c(N)nc(=N)c3cc12",
    "Quantity name": "TGI",
    "Relation symbol": ">",
    "Test result": 100
  },
  {
    "Compound": "Nc1ccccc1NC(=O)c1ccc(CSc2nc(N3CCOCC3)c3cccn3n2)cc1",
    "Quantity name": "TGI",
    "Relation symbol": "=",
    "Test result": 2.96
  }
]

====

Test system: SK-MEL-2 melanoma
Protocol details: NCI tumour cell line growth inhibition, 48 h
Quick list: TGI per entry.
Quantity name: TGI

[
  {
    "Molecule": "O=C(CCl)N1CCCCC1C1(c2cc3ccccc3[nH]2)OCCO1 (stereo not given)",
    "Test result": "20.2 µM"
  },
  {
    "Molecule": "CN1CCN(C(=O)c2ccc(NC(=O)Nc3ccc(N(C)c4ccnc(Nc5ccc(CS(C)(=O)=O)cc5)n4)cc3)cc2)CC1",
    "Test result": "> 25 µM"
  },
  {
    "Molecule": "CCOC(=O)Cc1ccc(Nc2nc3cc(C(F)(F)F)ccc3nc2C(=O)OCC)cc1",
    "Test result": "> 100 µM"
  },
  {
    "Molecule": "CNC(=O)Nc1cc2c3c(c1)CCCN3CCC2",
    "Test result": "> 10 µM"
  },
  {
    "Molecule": "C=C1C(=O)O[C@@H]2[C@H]1CC[C@H](C)[C@]1(O)CCC(=O)[C@@]21C",
    "Test result": "> 10 µM"
  },
  {
    "Molecule": "Cc1[nH]c2c(C)ccc(C)c2c1CC(=O)O",
    "Test result": "81.9 µM"
  },
  {
    "Molecule": "COc1ccc(-c2coc3ncnc(N)c23)cc1",
    "Test result": "> 25 µM"
  },
  {
    "Molecule": "Cc1cc(S(=O)(=O)Nc2nc(N)n(-c3cnc4ccccc4n3)n2)c(S)cc1Cl",
    "Test result": "> 100 µM"
  },
  {
    "Molecule": "CSc1ccc(-c2cn3ccsc3n2)c(O)c1",
    "Test result": "> 100 µM"
  },
  {
    "Molecule": "CN1CCC23c4c5ccc(O)c4OC2C(=NN=C2CCC4(O)C6Cc7ccc(O)c8c7C4(CCN6C)C2O8)CCC3(O)C1C5 (stereo not given)",
    "Test result": "> 100 µM"
  },
  {
    "Molecule": "O=C1C2CC3C(CC2C(=O)[N]1[Sn]([c]1ccccc1)([c]1ccccc1)[c]1ccccc1)C1(Cl)C(Cl)=C(Cl)C3(Cl)C1(Cl)Cl (stereo not given)",
    "Test result": "0.351 µM"
  },
  {
    "Molecule": "O=C(O)C1C2C=CC(O2)C1C(=O)Nc1ccccc1 (stereo not given)",
    "Test result": "> 100 µM"
  },
  {
    "Molecule": "CCCC(OCC)(OCC)OCC",
    "Test result": "> 100 µM"
  },
  {
    "Molecule": "c1ccc(N/N=C2\\CC(c3ccccc3)Oc3ccccc32)cc1 (stereo not given)",
    "Test result": "> 100 µM"
  },
  {
    "Molecule": "C[C@]12CC[C@@H]3c4ccc(OC(=O)c5ccccc5)cc4CC[C@H]3[C@@H]1CCC2OC(=O)c1cccc2c(=O)c3ccccc3[nH]c12 (stereo not given in full)",
    "Test result": "54.3 µM"
  }
]

====

Quick list: TGI per entry.
Tested on: NCI-H226 lung
Protocol details: NCI tumour cell line growth inhibition, 48 h

[
  {
    "Query smiles": "Cc1nnc(Nc2ccc(Cl)cc2)o1",
    "TGI": "> 10 µM"
  },
  {
    "Query smiles": "Cn1c(=O)n(-c2c3ccccc3c(Cl)c3ccccc23)n(C(C)(C)C)c1=O",
    "TGI": "> 100 µM"
  },
  {
    "Query smiles": "CN1CCN(C(=O)c2ccc(NC(=O)Nc3ccc(N(C)c4ccnc(Nc5ccc(CS(C)(=O)=O)cc5)n4)cc3)cc2)CC1",
    "TGI": "> 25 µM"
  }
]
